Assay: Induction of NO release in PBS buffer in presence of rat serum at pH 7.4 incubated for 6 hrs
Parameters: concentration or dose not given beside the values
Conditions: pH 7.4, 6 h
Measurement Label: Activity (%)
Quick reminder: number only, in %, skip the unit.

The reported Activity of the compound `CC(C)[C@H]1CC[C@H](C(=O)N[C@H](Cc2ccccc2)C(=O)OCO/N=[N+](/[O-])N2CCCC2)CC1` was 50.1

The reported Activity of the compound `COc1ccc(Cl)cc1C(=O)NCCc1ccc(C(=O)OCCO[N+](=O)[O-])cc1` was 2.6

The reported Activity of the compound `CCN(CC)/[N+]([O-])=N\OCOC(=O)[C@@H](Cc1ccccc1)NC(=O)[C@H]1CC[C@H](C(C)C)CC1` was 57.2

The reported Activity of the compound `COc1ccc(Cl)cc1C(=O)NCCc1ccc(C(=O)OCO/N=[N+](\[O-])N2CCCC2)cc1` was 59.2

The reported Activity of the compound `CCN(CC)/[N+]([O-])=N/OCOC(=O)c1ccc(CCNC(=O)c2cc(Cl)ccc2OC)cc1` was 61.5

Attention now shifts to the item below.
The reported Activity of the compound `CC(C)[C@H]1CC[C@H](C(=O)N[C@H](Cc2ccccc2)C(=O)OCCO[N+](=O)[O-])CC1` was 3.9

----------
Assay: Induction of NO release in PBS buffer in presence of rat serum at pH 7.4 incubated for 3 hrs
Design: concentration or dose not given beside the values
Conditions: pH 7.4, 3 h
Measurement Label: Activity (%)
Quick reminder: number only, in %, skip the unit.

Guide cases for Activity, answers given:
The reported Activity of the compound `CCN(CC)/[N+]([O-])=N/OCOC(=O)c1ccc(CCNC(=O)c2cc(Cl)ccc2OC)cc1` was 55.9

The reported Activity of the compound `COc1ccc(Cl)cc1C(=O)NCCc1ccc(C(=O)OCCO[N+](=O)[O-])cc1` was 2.3

The reported Activity of the compound `COc1ccc(Cl)cc1C(=O)NCCc1ccc(C(=O)OCO/N=[N+](\[O-])N2CCCC2)cc1` was 51.7

The reported Activity of the compound `CC(C)[C@H]1CC[C@H](C(=O)N[C@H](Cc2ccccc2)C(=O)OCCO[N+](=O)[O-])CC1` was 1.9

The reported Activity of the compound `CCN(CC)/[N+]([O-])=N\OCOC(=O)[C@@H](Cc1ccccc1)NC(=O)[C@H]1CC[C@H](C(C)C)CC1` was 50.2

Attention now shifts to the item below.
The reported Activity of the compound `CC(C)[C@H]1CC[C@H](C(=O)N[C@H](Cc2ccccc2)C(=O)OCO/N=[N+](/[O-])N2CCCC2)CC1` was 47.2

----------
Tested on: Rattus norvegicus
Assay: Induction of hyperglycemia in streptozotocin-induced diabetic Sprague-Dawley rat assessed as increase in blood glucose level at 63.01 umol/kg, po after 24 hrs relative to control
Format: organism-based
Conditions: in vivo
Measurement Label: Activity

The reported Activity of the compound `CC(C)[C@H]1CC[C@H](C(=O)N[C@H](Cc2ccccc2)C(=O)OCCO[N+](=O)[O-])CC1` was Non-toxic

The reported Activity of the compound `COc1ccc(Cl)cc1C(=O)NCCc1ccc(C(=O)OCO/N=[N+](\[O-])N2CCCC2)cc1` was Non-toxic

The reported Activity of the compound `CCN(CC)/[N+]([O-])=N\OCOC(=O)[C@@H](Cc1ccccc1)NC(=O)[C@H]1CC[C@H](C(C)C)CC1` was Non-toxic

The reported Activity of the compound `CCN(CC)/[N+]([O-])=N/OCOC(=O)c1ccc(CCNC(=O)c2cc(Cl)ccc2OC)cc1` was Non-toxic

The reported Activity of the compound `CC(C)[C@H]1CC[C@H](C(=O)N[C@H](Cc2ccccc2)C(=O)OCO/N=[N+](/[O-])N2CCCC2)CC1` was 48.7%

Attention now shifts to the item below.
The reported Activity of the compound `COc1ccc(Cl)cc1C(=O)NCCc1ccc(C(=O)OCCO[N+](=O)[O-])cc1` was Non-toxic

----------
System: Mus musculus
Experiment: Effect on heart rate in C57BL/6 mouse at 63.01 umol/kg, po after 6 hrs (reference value: 439 bpm)
Type: ADME, organism-based
Settings: in vivo
Measurement Label: Activity (bpm)
Quick reminder: number only, in bpm, skip the unit.

The reported Activity of the compound `CC(C)[C@H]1CC[C@H](C(=O)N[C@H](Cc2ccccc2)C(=O)OCO/N=[N+](/[O-])N2CCCC2)CC1` was 435

New cases:
The reported Activity of the compound `CCN(CC)/[N+]([O-])=N/OCOC(=O)c1ccc(CCNC(=O)c2cc(Cl)ccc2OC)cc1` was 435

The reported Activity of the compound `CC(C)[C@H]1CC[C@H](C(=O)N[C@H](Cc2ccccc2)C(=O)OCCO[N+](=O)[O-])CC1` was 435

The reported Activity of the compound `COc1ccc(Cl)cc1C(=O)NCCc1ccc(C(=O)OCO/N=[N+](\[O-])N2CCCC2)cc1` was 435

The reported Activity of the compound `CCN(CC)/[N+]([O-])=N\OCOC(=O)[C@@H](Cc1ccccc1)NC(=O)[C@H]1CC[C@H](C(C)C)CC1` was 435

The reported Activity of the compound `COc1ccc(Cl)cc1C(=O)NCCc1ccc(C(=O)OCCO[N+](=O)[O-])cc1` was 435

----------
Tested on: Mus musculus
Experiment: Antihypertensive activity in C57BL/6 mouse assessed as reduction in systolic blood pressure at 63.01 umol/kg, po after 6 hrs (reference value: 126.2 mmHg)
Format: functional, Artery
Measurement Label: Activity (mmHg)
Quick reminder: number only, in mmHg, skip the unit.

The reported Activity of the compound `CCN(CC)/[N+]([O-])=N/OCOC(=O)c1ccc(CCNC(=O)c2cc(Cl)ccc2OC)cc1` was 103.4

New cases:
The reported Activity of the compound `CC(C)[C@H]1CC[C@H](C(=O)N[C@H](Cc2ccccc2)C(=O)OCCO[N+](=O)[O-])CC1` was 103.4

The reported Activity of the compound `CCN(CC)/[N+]([O-])=N\OCOC(=O)[C@@H](Cc1ccccc1)NC(=O)[C@H]1CC[C@H](C(C)C)CC1` was 134.4

The reported Activity of the compound `CC(C)[C@H]1CC[C@H](C(=O)N[C@H](Cc2ccccc2)C(=O)OCO/N=[N+](/[O-])N2CCCC2)CC1` was 134.3

The reported Activity of the compound `COc1ccc(Cl)cc1C(=O)NCCc1ccc(C(=O)OCCO[N+](=O)[O-])cc1` was 103.4

The reported Activity of the compound `COc1ccc(Cl)cc1C(=O)NCCc1ccc(C(=O)OCO/N=[N+](\[O-])N2CCCC2)cc1` was 103.4

----------
Assay: Induction of NO release in PBS buffer at pH 7.4 incubated for 24 hrs
Type: physicochemical
Set-up: concentration or dose not given beside the values
Details: pH 7.4, 24 h
Labelling field: enter label 1 if recorded Activity is less than 9%. Enter label 0 if it equals or exceeds that cut-off.

Please indicate whether the reported Activity of `CCN(CC)/[N+]([O-])=N\OCOC(=O)[C@@H](Cc1ccccc1)NC(=O)[C@H]1CC[C@H](C(C)C)CC1` is strictly below 9%.
label 0

Please indicate whether the reported Activity of `CC(C)[C@H]1CC[C@H](C(=O)N[C@H](Cc2ccccc2)C(=O)OCO/N=[N+](/[O-])N2CCCC2)CC1` is strictly below 9%.
label 0

Please indicate whether the reported Activity of `CCN(CC)/[N+]([O-])=N/OCOC(=O)c1ccc(CCNC(=O)c2cc(Cl)ccc2OC)cc1` is strictly below 9%.
label 1

New cases:
Please indicate whether the reported Activity of `COc1ccc(Cl)cc1C(=O)NCCc1ccc(C(=O)OCCO[N+](=O)[O-])cc1` is strictly below 9%.
label 0
